Quick reference for Kd among some binders
Assay system: T1, human PCSK9 (proprotein convertase subtilisin kexin type 9) (human, UniProt Q8NBP7 31-692)
T1 construct: Directly immobilized (SPR ProteOn), biotinylated (BLI), or in solution, depending on the assay; also called hPCSK9
T1 sequence (Q8NBP7 31-692 limits assumed): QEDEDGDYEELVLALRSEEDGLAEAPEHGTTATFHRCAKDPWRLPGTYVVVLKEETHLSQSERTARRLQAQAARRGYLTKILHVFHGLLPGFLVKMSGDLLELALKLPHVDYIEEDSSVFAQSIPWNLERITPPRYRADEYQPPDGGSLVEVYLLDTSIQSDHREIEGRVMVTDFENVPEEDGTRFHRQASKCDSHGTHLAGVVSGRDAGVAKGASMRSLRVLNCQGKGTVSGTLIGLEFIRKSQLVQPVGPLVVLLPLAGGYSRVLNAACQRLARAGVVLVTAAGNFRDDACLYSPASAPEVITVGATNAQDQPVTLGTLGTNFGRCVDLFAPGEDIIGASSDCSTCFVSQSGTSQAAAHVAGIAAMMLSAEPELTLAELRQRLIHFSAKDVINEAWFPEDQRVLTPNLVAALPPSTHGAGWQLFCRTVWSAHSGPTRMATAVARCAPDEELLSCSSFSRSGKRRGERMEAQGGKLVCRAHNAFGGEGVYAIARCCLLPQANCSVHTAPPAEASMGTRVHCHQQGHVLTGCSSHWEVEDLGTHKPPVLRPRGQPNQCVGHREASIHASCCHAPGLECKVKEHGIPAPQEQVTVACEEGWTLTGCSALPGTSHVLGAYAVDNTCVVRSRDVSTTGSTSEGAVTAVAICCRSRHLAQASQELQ
Experiment: BLI, biotinylated hPCSK9 on sensor tips
// note: answer is a bare numeric in nM

Example entries begin here.
Binder	Unit annotation	Recorded number
2381B04 (designed binder, Anti-PCSK9 Adnectin, His6-tagged) MGVSDVPRDLEVVAATPTSLLISWEPFSRLPGGGEYYRITYGETGGNSPLQQFTVPGSKGTATISGLKPGVDYTITVYAVEYPYEHSGYYHRPISINYRTEIDKPSQHHHHHH	nM	0.527
2381H09 (designed binder, Anti-PCSK9 Adnectin, His6-tagged) MGVSDVPRDLEVVAATPTSLLISWDAPAGGGYGYYRITYGETGGNSPVQEFTVPVSKGTATISGLKPGVDYTITVYAVEFDFVGAGYYHRPISINYRTEIDKPSQHHHHHH	nM	3.23
2382C09 (designed binder, Anti-PCSK9 Adnectin, His6-tagged) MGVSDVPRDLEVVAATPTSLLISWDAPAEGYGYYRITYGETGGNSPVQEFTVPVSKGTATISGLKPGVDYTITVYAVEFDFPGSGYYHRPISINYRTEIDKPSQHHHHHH	nM	0.757
2451C06 (designed binder, Anti-PCSK9 Adnectin, His6-tagged) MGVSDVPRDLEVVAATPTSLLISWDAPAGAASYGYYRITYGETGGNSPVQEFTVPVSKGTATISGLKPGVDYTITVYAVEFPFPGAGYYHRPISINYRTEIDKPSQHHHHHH	nM	1.27

QUERY: Supply Kd value. Item: 2382D03 (designed binder, Anti-PCSK9 Adnectin, His6-tagged) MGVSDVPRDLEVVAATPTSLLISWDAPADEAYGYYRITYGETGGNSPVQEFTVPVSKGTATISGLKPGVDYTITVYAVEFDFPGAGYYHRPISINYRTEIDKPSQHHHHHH
RESULT: 1.53

QUERY: Supply Kd value. Item: ATI001175 (designed binder) MGVSDVPRDLEVVAATPTSLLISWDPPSHAYGYYRITYGETGGNSPVQEFTVPIGKGTATISGLKPGVDYTITVYAVEYPWKGSGYYHRPISINYRTEIDKPSQHHHHHH
RESULT: 0.543

QUERY: Supply Kd value. Item: ATI001119 (designed binder, PEGylated on the cysteine of the C-terminal tail (marked by asterisk in Table 5 as having been pegylated; PEG not specified), Anti-PCSK9 Adnectin, cysteine mutant of 2012A04, His6-tagged; also called 2012A04 Cys mut) MGVSDVPRDLEVVAATPTSLLISWRPPSNGHGYYRITYGETGGNSPVQEFTVPVNEGTATISGLKPGVDYTITVYAVEFPFKWSGYYHRPISINYRTGSGCHHHHHH
RESULT: 5.3

QUERY: Supply Kd value. Item: 2011H05 (designed binder, Anti-PCSK9 Adnectin, His6-tagged; also called ATI001091) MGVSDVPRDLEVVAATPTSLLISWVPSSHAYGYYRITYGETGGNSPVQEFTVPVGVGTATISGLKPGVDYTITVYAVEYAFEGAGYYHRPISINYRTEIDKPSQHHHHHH
RESULT: 0.293
